The measured values listed here are drawn from patent US20200079876A1.

Catalogue of binders with associated koff
assayTarget: T1, Pro-C1s
T1 construct: also called purified pro-C1s protein
T1 chain: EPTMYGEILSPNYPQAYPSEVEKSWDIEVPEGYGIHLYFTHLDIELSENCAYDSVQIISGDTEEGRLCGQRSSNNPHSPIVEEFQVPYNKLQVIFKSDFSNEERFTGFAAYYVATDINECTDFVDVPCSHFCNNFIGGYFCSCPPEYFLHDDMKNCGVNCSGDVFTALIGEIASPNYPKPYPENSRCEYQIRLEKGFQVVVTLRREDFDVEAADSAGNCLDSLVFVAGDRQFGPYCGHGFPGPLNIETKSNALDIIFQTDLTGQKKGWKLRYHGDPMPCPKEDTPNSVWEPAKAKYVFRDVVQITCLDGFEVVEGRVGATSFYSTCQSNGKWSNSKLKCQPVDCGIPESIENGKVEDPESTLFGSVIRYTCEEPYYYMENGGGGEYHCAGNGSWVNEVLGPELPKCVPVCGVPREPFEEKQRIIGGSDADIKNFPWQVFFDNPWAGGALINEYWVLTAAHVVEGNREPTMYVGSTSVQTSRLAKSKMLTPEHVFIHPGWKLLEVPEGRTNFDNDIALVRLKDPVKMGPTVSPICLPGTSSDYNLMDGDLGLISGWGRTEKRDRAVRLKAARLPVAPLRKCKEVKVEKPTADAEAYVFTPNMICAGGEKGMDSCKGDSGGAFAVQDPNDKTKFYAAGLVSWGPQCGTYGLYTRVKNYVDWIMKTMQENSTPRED
protocolSummary: bio-layer interferometry (BLI), kinetic analysis
Numeric answer only, unit s⁻¹ assumed.

antibody IPN-M18 (antibody, V domains shown, Mouse monoclonal antibody (NZBW hybridoma)) VH: EVQLQQSGPELVKPGASVKISCKASGYSFTGYYIHWVKQSPEKSLEWIGEINPTTNDTTYNQKFKAKATLTVDKSSNTAYMQLKSLTSEDSAVYYCSRDISGPAWFAYWGQGTLVTVSA VL: DIVLTQTTAIMSASPGEKVTMTCSASSSISYMYWFQQKPGTSPKRWIYDTSKLASGVPARFSGSGSGTSYSLTISTMEAEDAATYYCHQRSSDPTFGGGTKLEINR = 0.000395
antibody IPN-M9 (antibody, V domains shown, Mouse monoclonal antibody (NZBW hybridoma)) VH: QVQLQQPGAELVRPGASVKLSCKVSGYTFTRYWMHWVKQRPGQGLEWIGEINPSNSDTDYNEEFKSKATLTVDKSSSTAYMHLSSLTSEDSAVYYCTIDDSAYGWFAYWGQGTLVTVSA VL: DIVMTQSPAIMSASPGERVTMTCSASSSISYMHWYHQKPGTSPKRWIYDTSKLASGVPARFSGSGSGTSYSLTISSMEAEDAATYYCHQRSSFPTFGAGTKLELK = 0.000299
antibody IPN-M24 (antibody, V domains shown, Mouse monoclonal antibody (NZBW hybridoma)) VH: EVKLQQSGAELVRPGVSVKISCKVSGYTFTDYAMHCVKQSHAKSLEWIGVISIYNGDASYNQKFKDKATMTVDKSSSTSYMDLARLTSEESAVYNCVREAPYLITTVFYAMDYWGQGTSVTVSS VL: DIVMTQSPAIMSASPGEKVTMTCSANSSISYMHWYQQKPGTSPKRWIYDTSKLASGVPTRFSGSGSGTSYSLTISSMEAEDAATYYCHQRSFYLTFGSGTKLEIK = 0.00036
antibody IPN-M15 (antibody, V domains shown, Mouse monoclonal antibody (NZBW hybridoma)) VH: EVKLEQSGAELVRPGASVKLSCTASGFNIKDDYIHWVKQRPEQGLEWIGRIDPADDHTKYAPKFQDKATMTADTSSNTACLQLNSLTSEDTAVYYCAIYGSGWAWFPYWGQGTLVSVSA VL: FALMTQSTDYLAVSLGQRATISCKASQSVDYDGDSYMNWYQQKPGQPPKLLIYAASNLESGIPTRFSGSGFGTDFTLNIHPVEEEDAATYYCQQSNEDPWTFGGGPKLEIK = 0.000194
antibody IPN-M1 (antibody, V domains shown, Mouse monoclonal antibody (NZBW hybridoma); of the 17, thirteen were IgG2a, one IgG2b, three IgG1; Same VL and VH as IPN-M3 and IPN-M13) VH: EVQLQQSGAELVRPGASVKLSCTASGFNIKDDYIHWVKQRPEQGLEWIGRIDPADDHTKYAPKFQDKATMTADTSSNTACLQLNSLTSEDTAVYYCAIYGSGWAWFPYWGQGTLVSVSA VL: DIVLTQSTDYLAVSLGQRATISCKASQSVDYDGDSYMNWYQQKPGQPPKLLIYAASNLESGIPARFSGSGSGTDFTLNIHPVEEEDAATYYCQQSNEDPWTFGGGTKLEIK = 0.000392

Reported koff for antibody IPN-M11 (antibody, V domains shown, Mouse monoclonal antibody (NZBW hybridoma)) VH: QVQLQQSGAELVRPGASVKLSCTASGFNIKDDYIHWVKQRPEQGLEWIGRIDPADDHTKYAPKFQDKATMTADTSSNTACLQLNSLTSEDTAVYYCAIYGSGWAWFPYWGQGTLVSVSA VL: DIVMTQSPDYLAVSLGQRAPISCKASQSVDYDGDSYMNWYQQKPGQPPKLLIYAASNLEFGIPTRFSGSGFGTDFPLNIHPVEEEDAATYYCQQSNEDPWTFGGGPKLEIK was 0.000329

// koff lookup, binder = antibody IPN-M14 (antibody, V domains shown, Mouse monoclonal antibody (NZBW hybridoma)) VH: EVKLQQSGAELVRPGASVKLSCTASGFNIKDDYIHWVKQRPEQGLEWIGRIDPADGHTKYAPKFQVKATITADTSSNTAYLQLSSLTSEDTAVYYCARYGYGREVFDYWGQGTTLTVSS VL: DIVLTQFPTFLAVFLGQRAPISCKASQSVDYDGDSYMNWFQQKTGQPPKILIYDASNLEFGIPTRFSGSGFGTDFPLNIHPVEEEDAAIYFCQQSNEDPWTFGGGPKLEIK , result: 0.000223

// koff lookup, binder = antibody IPN-M33 (antibody, V domains shown, Mouse monoclonal antibody (NZBW hybridoma)) VH: QVKLQQSGPELVKPGTSVRISCKTSGYSFTGYYMHWVKQSPEKSLEWIGEINPSIGDITYNQRFKAKATLTVDKSSSTAYMQLKSLTSEDSAVYYCASDYYGGGFAWFAYWGQGTLVTVSA VL: DIVMTQSPAIMSASSGEKVTMTCSASSSINYMHWYQQKPGTSPKRWIYDTSKLASGVPARFSGSGSGTSYSLTISSMEAEDTATYYCHQRSDSLTFGSGTKLEIK , result: 2.52e-05

Record antibody IPN-M27 (antibody, V domains shown, Mouse monoclonal antibody (NZBW hybridoma)) VH: QVQLQQSGAELVRPGASVKLSCKVSGYTFTRYWMHWVKQRPGQGLEWIGEINPSNSDTDYNEEFKSKATLTVDKSSSTAYMHLSNLTSEDSAVYYCTIDDSAYGWFAYWGQGTLVTVSA VL: DIVLTQSTAIMSASPGERVTMTCSASSSISYMHWYHQKPGTSPKRWIYDTSKLASGVPARFSGSGSGTSYSLAISSMEAEDAATYYCHQRSSFPTFGAGTKLELK , field koff: 0.000283

Form field koff, entry antibody IPN-M28 (antibody, V domains shown, Mouse monoclonal antibody (NZBW hybridoma)) VH: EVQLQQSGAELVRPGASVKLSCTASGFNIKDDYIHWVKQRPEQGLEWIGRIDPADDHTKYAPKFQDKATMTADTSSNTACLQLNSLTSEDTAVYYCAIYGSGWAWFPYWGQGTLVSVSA VL: DIVLTQTPDYLAVSLGQRATISCKASQSVDYDGDSYMNWYQQKPGQPPKLLIYAASNLESGIPARFSGSGSGTDFTLNIHPVEEEDAATYYCQQSNEDPWTFGGGTKLEIK : 0.000178
